Recorded values, source ChEMBL document CHEMBL4196161.

- EXPERIMENTAL_DETAILS: Cmax in Sprague-Dawley rat at 5 mg/kg, po administered as single dose by LC-MS/MS analysis
- Assay type: ADME, organism-based
- Design: dose 5 mg/kg, route oral
- CONDITION_CONTEXT: in vivo
Readings of Cmax for the listed compounds
VALUE_KIND: Cmax (ng/mL)

- GIVEN_SMILES: "O=c1[nH]c2ccc(-c3c(Cl)cccc3OC(F)(F)F)cc2[nH]1"
  RESULT: 1030
- GIVEN_SMILES: "O=c1[nH]c2ccc(-c3c(Cl)cccc3C3CC3)cc2[nH]1"
  RESULT: 502

====

- EXPERIMENTAL_DETAILS: Thermodynamic solubility of the compound in simulated gastric fluid at pH 1.6 incubated under stirred condition for 3 days
- Type: physicochemical
- CONDITION_CONTEXT: read-out: Therm_solubility
Documented solubility thermodynamic at 72 h across a set of compounds

- GIVEN_SMILES: "Cc1cc(-c2c(Cl)cncc2OC(F)(F)F)cc2c1NC(=O)C2"
  LT_GT_EQ: "="
  solubility thermodynamic at 72 h, µM: 11
- GIVEN_SMILES: "Cc1cc(-c2c(Cl)cncc2OC(F)F)cc2c1NC(=O)C2"
  LT_GT_EQ: "="
  solubility thermodynamic at 72 h, µM: 140
- GIVEN_SMILES: "O=c1[nH]c2ccc(-c3c(Cl)cncc3Cl)cc2[nH]1"
  LT_GT_EQ: "="
  solubility thermodynamic at 72 h, µM: 42
- GIVEN_SMILES: "O=c1[nH]c2ccc(-c3c(Cl)cccc3C3CC3)cc2[nH]1"
  LT_GT_EQ: "<"
  solubility thermodynamic at 72 h, µM: 4
- GIVEN_SMILES: "Cc1cccc(Cl)c1-c1ccc2[nH]c(=O)[nH]c2c1"
  LT_GT_EQ: "<"
  solubility thermodynamic at 72 h, µM: 4
- GIVEN_SMILES: "Cc1cccc(C)c1-c1ccc2[nH]c(=O)[nH]c2c1"
  LT_GT_EQ: "="
  solubility thermodynamic at 72 h, µM: 5
- GIVEN_SMILES: "O=c1[nH]c2ccc(-c3c(Cl)cccc3OC(F)(F)F)cc2[nH]1"
  LT_GT_EQ: "<"
  solubility thermodynamic at 72 h, µM: 4
- GIVEN_SMILES: "O=c1[nH]c2ccc(-c3c(Cl)cccc3Cl)cc2[nH]1"
  LT_GT_EQ: "<"
  solubility thermodynamic at 72 h, µM: 4

====

IC50 listing for selected compounds.
- STUDY_SYSTEM: GRIA1/CACNG8 (Homo sapiens, UniProt P42261+Q8WXS5)
- Sequence (P42261 whole entry, canonical isoform): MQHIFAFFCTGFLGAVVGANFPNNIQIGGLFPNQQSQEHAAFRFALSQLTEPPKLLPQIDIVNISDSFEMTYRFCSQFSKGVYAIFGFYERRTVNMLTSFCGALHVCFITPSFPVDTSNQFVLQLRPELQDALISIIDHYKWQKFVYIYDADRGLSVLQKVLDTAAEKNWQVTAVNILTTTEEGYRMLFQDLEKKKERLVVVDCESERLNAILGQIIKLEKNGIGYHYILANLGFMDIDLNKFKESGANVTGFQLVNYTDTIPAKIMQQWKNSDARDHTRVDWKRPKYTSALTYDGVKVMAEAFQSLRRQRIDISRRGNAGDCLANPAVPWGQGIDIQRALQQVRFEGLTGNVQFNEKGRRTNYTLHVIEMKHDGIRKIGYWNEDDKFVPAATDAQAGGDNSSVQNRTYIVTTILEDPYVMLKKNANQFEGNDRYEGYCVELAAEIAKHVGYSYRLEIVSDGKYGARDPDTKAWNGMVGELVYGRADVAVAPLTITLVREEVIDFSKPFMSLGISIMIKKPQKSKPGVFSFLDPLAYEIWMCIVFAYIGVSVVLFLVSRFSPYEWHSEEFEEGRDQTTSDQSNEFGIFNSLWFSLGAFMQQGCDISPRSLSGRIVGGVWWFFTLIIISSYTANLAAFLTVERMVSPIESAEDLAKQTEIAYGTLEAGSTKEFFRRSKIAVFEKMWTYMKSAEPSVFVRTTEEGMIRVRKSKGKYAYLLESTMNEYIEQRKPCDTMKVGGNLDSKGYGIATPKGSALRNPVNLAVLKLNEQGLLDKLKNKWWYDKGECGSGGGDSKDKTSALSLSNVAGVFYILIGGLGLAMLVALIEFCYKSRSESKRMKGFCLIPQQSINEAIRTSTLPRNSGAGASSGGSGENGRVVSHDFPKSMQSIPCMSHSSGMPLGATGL
- Sequence (Q8WXS5 whole entry, canonical isoform): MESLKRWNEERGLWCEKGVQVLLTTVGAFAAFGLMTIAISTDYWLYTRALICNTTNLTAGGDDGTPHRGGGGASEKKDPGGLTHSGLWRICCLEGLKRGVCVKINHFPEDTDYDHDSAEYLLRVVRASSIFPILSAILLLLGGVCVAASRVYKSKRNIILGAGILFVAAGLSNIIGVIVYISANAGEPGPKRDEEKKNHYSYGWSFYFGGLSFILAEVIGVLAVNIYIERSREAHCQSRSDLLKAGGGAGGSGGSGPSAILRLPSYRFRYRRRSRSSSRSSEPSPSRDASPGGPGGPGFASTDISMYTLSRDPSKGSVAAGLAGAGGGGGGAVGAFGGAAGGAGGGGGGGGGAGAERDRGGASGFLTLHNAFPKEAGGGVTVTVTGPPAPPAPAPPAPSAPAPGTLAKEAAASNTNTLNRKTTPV
- EXPERIMENTAL_DETAILS: Modulation of recombinant human GluA1 flop isoform/TARPgamma8 expressed in HEK293F cells assessed as blockade of glutamate-induced calcium flux by calcium 5/6 dye based FLIPR assay
VALUE_KIND: IC50 (nM)

- GIVEN_SMILES: "N#Cc1cccc(Cl)c1-c1ccc2[nH]c(=O)[nH]c2c1"
  RESULT: 251
- GIVEN_SMILES: "N#CCc1cccc(Cl)c1-c1ccc2[nH]c(=O)[nH]c2c1"
  RESULT: 10
- GIVEN_SMILES: "O=c1[nH]c2ccc(-c3c(Cl)cccc3Cl)cc2[nH]1"
  RESULT: 50.1
